tested on: 699152-130-R-J1-PDC complex spheroid growth; experiment: Anticancer human tumor 699152-130-R-J1-PDC patient-derived pancreatic carcinoma cell line growth inhibition [AhR]; settings: second compound 0.1 µM; first compound 0.003 µM; hits give low values;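 further: compound exposure lasted 7 days after spheroids had grown for 3 days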
endpointName: viability, T/C (%)
One number for each entry, in %.

{"columns": ["compound", "testTarget", "unitLabel", "quantitativeReadout"],
 "data": [
  ["Nc1ncn(C2CC(O)C(CO)S2)c(=O)n1 (stereo not drawn) + Cc1ccccc1N=Nc1ccc(NC(=O)c2ccnn2C)c(C)c1", "699152-130-R-J1-PDC complex spheroid growth", "%", 98.9],
  ["Nc1ncn(C2CC(O)C(CO)S2)c(=O)n1 (stereo not drawn) + CC(CO)NC(=O)c1cc(-c2ccc(Cl)cc2)nn(-c2cnn(C)c2)c1=O", "699152-130-R-J1-PDC complex spheroid growth", "%", 104]
]}

Turning to the following compound.
Task item: What measured viability, T/C goes with CCc1c2c(nc3ccc(O)cc13)-c1cc3c(c(=O)n1C2)COC(=O)[C@]3(O)CC + Cc1ccccc1N=Nc1ccc(NC(=O)c2ccnn2C)c(C)c1 ?
Reply: 86.4
